We begin with a simple list: items and their reported IC50.
# Tested target: HLA-B*4001 (Homo sapiens, UniProt P01889, A65T/A93T/A95T/D138N/D98Y/E176V/E69K/N87E/Q56L/Q94N/R180L/S121R/S35A/S48T/T167S/V36M/W171L/Y33H/Y91S)
# Experiment notes: biochemical
# Type: binding
No end group written: not given here.

>  <Sequence entry>
LDPYARVAI

>  <Uom>
µM

>  <Limit qualifier>
>

>  <IC50>
88.9

$$$$
>  <Sequence entry>
AENLWFTVY

>  <Uom>
µM

>  <Limit qualifier>
=

>  <IC50>
0.699

$$$$
>  <Sequence entry>
AENLWVTVP

>  <Uom>
µM

>  <Limit qualifier>
=

>  <IC50>
9.71

$$$$
>  <Sequence entry>
PENLWVTVY

>  <Uom>
µM

>  <Limit qualifier>
>

>  <IC50>
72.7

$$$$
>  <Sequence entry>
AENLWVTVH

>  <Uom>
µM

>  <Limit qualifier>
=

>  <IC50>
0.493

$$$$
